# measured_on: human DGAT1 enzyme (Homo sapiens)
# Construct: made in house; host or cells: Sf9 insect cells (microsomal membranes)
# assay_procedure: in vitro DGAT1 inhibition assay (microsomes, [14C]-palmitoyl-CoA, SPA beads)
# Type: biochemical
# experimental_context: human DGAT1 expressed in Sf9 insect cells, microsomes; 2 hours at room temperature; read-out: IC50
Just a reminder that ties go to condition not met: only IC50 strictly below 100 nM counts as condition met.

INPUT: Say whether its IC50 is strictly beneath 100 nM. Entry: Cc1c(C(=O)Nc2ccc(N3CCC(COc4cccc(C(=O)O)c4)CC3)nc2)oc2ccc(-c3cccc(F)c3)cc12
OUTPUT: condition met

INPUT: Please check: IC50 for Cc1c(C(=O)Nc2ccc(N3CCC(OCc4cccc(C(=O)O)c4)CC3)nc2)oc2ccc(-c3cccc(F)c3)cc12 , strictly under 100 nM or not?
OUTPUT: condition not met

INPUT: For Cc1ccc2c(C)c(C(=O)Nc3ccc(N4CCC(OCc5cccc(C(=O)O)c5)CC4)nc3)oc2c1C , is the recorded IC50 below the cut-off of 100 nM?
OUTPUT: condition met

INPUT: Given the entry Cc1c(C(=O)Nc2ccc(N3CCC(OCc4cccc(C(=O)O)c4)CC3)nc2)oc2ccc(-c3ccc(F)cc3)cc12 , would its reported IC50 be below 100 nM?
OUTPUT: condition not met

INPUT: In plain terms, does Cc1c(C(=O)Nc2ccc(N3CCC(COc4cccc(C(=O)O)c4)CC3)nc2)oc2ccc(Cc3ccccc3)cc12 come in under 100 nM for IC50?
OUTPUT: condition met

INPUT: Dear reviewer, please state whether Cc1c(C(=O)Nc2ccc(N3CCN(C(=O)Nc4ccccc4F)CC3)nc2)oc2ccc(-c3ncco3)cc12 has IC50 strictly beneath 100 nM.
OUTPUT: condition not met

INPUT: Strictly below 100 nM: is that where IC50 of CCOC(=O)c1ccccc1NC(=O)N1CCN(c2ccc(NC(=O)c3oc4ccc(-c5ccc(OC)cc5)cc4c3C)cn2)CC1 sits?
OUTPUT: condition not met

---

# measured_on: human DGAT1 enzyme (Homo sapiens, UniProt O75907)
# Construct: made in house; host or cells: Sf9 insect cells (microsomal membranes)
# Sequence (O75907 1-488): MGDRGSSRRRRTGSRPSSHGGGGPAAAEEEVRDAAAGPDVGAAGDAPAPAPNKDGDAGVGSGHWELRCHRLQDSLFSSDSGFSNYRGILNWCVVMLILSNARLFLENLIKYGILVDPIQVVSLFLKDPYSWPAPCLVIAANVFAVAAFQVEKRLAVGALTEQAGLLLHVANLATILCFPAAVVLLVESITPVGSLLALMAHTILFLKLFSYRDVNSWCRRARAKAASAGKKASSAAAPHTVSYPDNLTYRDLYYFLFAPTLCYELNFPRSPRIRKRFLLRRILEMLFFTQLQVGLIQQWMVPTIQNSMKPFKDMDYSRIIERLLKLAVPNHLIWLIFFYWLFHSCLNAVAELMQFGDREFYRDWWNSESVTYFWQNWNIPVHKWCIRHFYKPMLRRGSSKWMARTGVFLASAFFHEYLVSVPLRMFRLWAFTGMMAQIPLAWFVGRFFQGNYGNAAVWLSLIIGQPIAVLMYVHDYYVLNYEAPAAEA
# assay_procedure: in vitro DGAT1 inhibition assay (microsomes, [14C]-palmitoyl-CoA, SPA beads)
# Format: biochemical
# experimental_context: human DGAT1 expressed in Sf9 insect cells, microsomes; 2 hours at room temperature; read-out: IC50
Categorized via IC50: group 1: < 70 nM; group 2: ≥ 70 nM and < 200 nM; group 3: ≥ 200 nM

INPUT: Lab note: sort Cc1c(C(=O)Nc2ccc(-c3ccc(OCC(C)(C)C(=O)O)nc3)cc2)oc2ccc(-c3ccccc3)cc12 into the matching IC50 band.
OUTPUT: group 1

INPUT: Which class holds COC(=O)c1cccc(COC2CCN(c3ccc(NC(=O)c4oc5ccc(-c6ccc(F)cc6)cc5c4C)cn3)CC2)c1 ?
OUTPUT: group 1

INPUT: Input Cc1c(C(=O)Nc2ccc(-c3ccc(OC4CCC(C(=O)O)CC4)nc3)nc2)oc2ccc(-c3ccccc3)cc12 (stereo not shown) ; output its category
OUTPUT: group 1

INPUT: Entry Cc1c(C(=O)Nc2ccc(N3CCN(C(=O)Nc4ccccc4F)CC3)nc2)oc2ccc(-c3cccc(F)c3)cc12 belongs to which category?
OUTPUT: group 3

INPUT: Lab note: sort CCOC(=O)c1ccccc1NC(=O)N1CCN(c2ccc(NC(=O)c3oc4ccc(-c5ccccc5F)cc4c3C)cn2)CC1 into the matching IC50 band.
OUTPUT: group 3

INPUT: Could you place Cc1c(C(=O)Nc2ccc(N3CCN(C(=O)Nc4ccccc4F)CC3)nc2)sc2ccc(-c3cccc(F)c3)cc12 in its proper category? Many thanks.
OUTPUT: group 3

INPUT: Returns: class label. Input: CCOC(=O)c1ccccc1NC(=O)N1CCN(c2ccc(NC(=O)c3sc4ccc(-c5ccccc5)cc4c3C)cn2)CC1
OUTPUT: group 3

INPUT: Dear colleague, I would appreciate it if you could identify the bin for Cc1c(C(=O)Nc2ccc(N3CCN(C(=O)Nc4ccccc4F)CC3)nc2)oc2ccc(-c3ccccc3F)cc12 and reply at your convenience.
OUTPUT: group 2

INPUT: For this molecule, which bin applies? COc1ccccc1-c1ccc2oc(C(=O)Nc3ccc(N4CCN(C(=O)Nc5ccccc5C(=O)O)CC4)nc3)c(C)c2c1
OUTPUT: group 3

INPUT: Could you place COc1ccc(-c2ccc3oc(C(=O)Nc4ccc(N5CCC(OCc6cccc(C(=O)O)c6)CC5)nc4)c(C)c3c2)cc1 in its proper category? Many thanks.
OUTPUT: group 1

INPUT: Hi, small favor: classify Cc1c(C(=O)Nc2ccc(N3CCC(COc4cccc(C(=O)O)c4)CC3)nc2)oc2ccc(-c3ccccc3F)cc12 by its IC50 when you get a moment.
OUTPUT: group 1

INPUT: Using the reported IC50, which band applies to Cc1c(C(=O)Nc2ccc(N3CCN(C(=O)Nc4ccccc4F)CC3)nc2)oc2c(F)cccc12 ?
OUTPUT: group 1

INPUT: GET /class?item= Cc1ccc(C(=O)O)cc1COC1CCN(c2ccc(NC(=O)c3oc4ccc(-c5ccccc5)cc4c3C)cn2)CC1
OUTPUT: group 2

INPUT: Hi, small favor: classify Cc1c(C(=O)Nc2ccc(N3CCN(C(=O)Nc4ccccc4F)CC3)nc2)oc2ccc(-c3ccc(F)cc3)cc12 by its IC50 when you get a moment.
OUTPUT: group 2

INPUT: For Cc1c(C(=O)Nc2ccc(N3CCN(C(=O)C(O)C(F)(F)F)CC3)nc2)oc2ccccc12 (stereo not shown) , which IC50 bin applies?
OUTPUT: group 3

INPUT: Hey, which category is Cc1c(C(=O)Nc2ccc(N3CC[C@H](COc4ccc(C(=O)O)cc4)C3)nc2)oc2ccc(-c3ccccc3)cc12 in, do you know?
OUTPUT: group 3

INPUT: Sort into band: CCOC(=O)c1ccccc1NC(=O)N1CCN(c2ccc(NC(=O)c3oc4ccc(-c5ccccc5OC)cc4c3C)cn2)CC1
OUTPUT: group 3

INPUT: Hi there! Could you help me figure out the category for Cc1c(C(=O)Nc2ccc(N3CCN(C(=O)Nc4ccccc4F)CC3)nc2)sc2ccc(-c3ccccc3)cc12 please?
OUTPUT: group 2

INPUT: Pick a category. Item: Cc1c(C(=O)Nc2ccc(N3CCC(COc4cccc(C(=O)O)c4)CC3)nc2)oc2ccc(-c3ccccc3)cc12
OUTPUT: group 1

INPUT: Lab log: Cc1c(C(=O)Nc2ccc(N3CCN(C(=O)Cc4c(F)cccc4F)CC3)nc2)oc2ccccc12 — assign IC50 category
OUTPUT: group 1

INPUT: Sort into band: CCOC(=O)c1ccccc1NC(=O)N1CCN(c2ccc(NC(=O)c3oc4ccc(-c5ccc(F)cc5)cc4c3C)cn2)CC1
OUTPUT: group 3

INPUT: Would you mind sorting Cc1c(C(=O)Nc2ccc(N3CCC(OCc4cccc(C(=O)O)c4)CC3)nc2)oc2ccc(-c3ncco3)cc12 into the appropriate category?
OUTPUT: group 3

INPUT: Exam item: assign Cc1c(C(=O)Nc2ccc(N3CCC(COc4cccc(C(=O)O)c4)CC3)nc2)oc2ccccc12 to the correct category.
OUTPUT: group 2

INPUT: Kindly identify the class of COc1ccccc1-c1ccc2oc(C(=O)Nc3ccc(N4CCC(OCc5cccc(C(=O)O)c5)CC4)nc3)c(C)c2c1 .
OUTPUT: group 2

INPUT: Lab log: Cc1c(C(=O)Nc2ccc(N3CCN(C(=O)Nc4ccccc4C(=O)O)CC3)nc2)sc2ccc(-c3ccccc3)cc12 — assign IC50 category
OUTPUT: group 1

INPUT: Which bin, given its IC50, does Cc1c(C(=O)Nc2ccc(N3CCN(C(=O)Nc4ccccc4C(=O)O)CC3)nc2)oc2ccc(-c3ccc(F)cc3)cc12 occupy?
OUTPUT: group 2

---

# measured_on: human DGAT1 enzyme (Homo sapiens, UniProt O75907)
# Construct: made in house; host or cells: Sf9 insect cells (microsomal membranes)
# assay_procedure: in vitro DGAT1 inhibition assay (microsomes, [14C]-palmitoyl-CoA, SPA beads)
# Assay type: biochemical
# experimental_context: human DGAT1 expressed in Sf9 insect cells, microsomes; 2 hours at room temperature; read-out: IC50
# Procedure: The in vitro assay to identify DGAT1 inhibitors uses human DGAT1 enzyme expressed in Sf9 insect cells prepared as microsomes. […] Plates were read on a TopCount instrument. Percent inhibition was calculated as the percent of (test compound inhibition minus non-specific binding) relative to (total binding minus non-specific binding). IC50 values were determined by curve fitting the data to a Sigmoidal dose-response in GraphPad Prism utilizing the following equation: […]
property: IC50 (nM)
The reply should be a number in nM, with the unit left off.

Record Cc1c(C(=O)Nc2ccc(N3CCN(C(=O)Nc4ccccc4F)CC3)nc2)sc2ccc(-c3ccc(F)cc3)cc12 . Reported IC50: 78

Entry COC(=O)c1cccc(COC2CCN(c3ccc(NC(=O)c4oc5ccc(-c6ccccc6OC)cc5c4C)cn3)CC2)c1 , IC50 reported as 13300

In plain terms, Cc1c(C(=O)Nc2ccc(N3CC[C@@H](COc4ccc(C(=O)O)cc4)C3)nc2)oc2ccc(-c3ccccc3)cc12 has a documented IC50 of 600

# IC50 of Cc1c(C(=O)Nc2ccc(-c3ccc(OCC(C)(C)C(=O)O)nc3)nc2)oc2ccc(-c3ccccc3)cc12 = 9
